nH reference
# experimental target: D(1A) dopamine receptor (Homo sapiens) (UniProt P21728)
# Sequence (P21728 whole entry): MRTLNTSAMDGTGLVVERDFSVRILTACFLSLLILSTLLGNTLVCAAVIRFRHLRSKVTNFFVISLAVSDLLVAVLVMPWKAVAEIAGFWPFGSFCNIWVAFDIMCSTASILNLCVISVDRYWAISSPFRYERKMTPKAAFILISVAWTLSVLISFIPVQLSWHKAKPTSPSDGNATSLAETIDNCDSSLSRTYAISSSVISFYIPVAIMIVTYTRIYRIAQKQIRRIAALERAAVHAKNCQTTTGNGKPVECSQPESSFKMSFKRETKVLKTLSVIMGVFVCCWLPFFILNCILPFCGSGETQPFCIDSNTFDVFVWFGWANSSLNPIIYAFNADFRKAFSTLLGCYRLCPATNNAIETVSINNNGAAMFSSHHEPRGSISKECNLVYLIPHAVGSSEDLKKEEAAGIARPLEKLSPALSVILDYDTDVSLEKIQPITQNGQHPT
# assay explanation: Hill slope was determined for the compound in D1 receptor binding assay
quantity name: nH

CN1CCc2cc(Cl)c(O)cc2[C@@H](c2ccccc2)C1 1.05
Oc1cc2c(cc1O)[C@@H](c1ccccc1)CNCC2 0.75
Oc1cc2c(cc1O)[C@H]1c3ccccc3CN[C@@H]1CC2 0.65
Oc1ccc2c(c1O)Cc1cccc3c1[C@H]2CNC3 0.66

Just for reference, ChEMBL document CHEMBL1129051 is where these values come from.
